The measured values listed here are drawn from patent US11420967B2.

# TGT: cannabinoid CB1 receptor (hCB1) (Homo sapiens, UniProt P21554)
# Construct: expressed in transfected cells; host or cells: HEK293
# Sequence (P21554 whole entry): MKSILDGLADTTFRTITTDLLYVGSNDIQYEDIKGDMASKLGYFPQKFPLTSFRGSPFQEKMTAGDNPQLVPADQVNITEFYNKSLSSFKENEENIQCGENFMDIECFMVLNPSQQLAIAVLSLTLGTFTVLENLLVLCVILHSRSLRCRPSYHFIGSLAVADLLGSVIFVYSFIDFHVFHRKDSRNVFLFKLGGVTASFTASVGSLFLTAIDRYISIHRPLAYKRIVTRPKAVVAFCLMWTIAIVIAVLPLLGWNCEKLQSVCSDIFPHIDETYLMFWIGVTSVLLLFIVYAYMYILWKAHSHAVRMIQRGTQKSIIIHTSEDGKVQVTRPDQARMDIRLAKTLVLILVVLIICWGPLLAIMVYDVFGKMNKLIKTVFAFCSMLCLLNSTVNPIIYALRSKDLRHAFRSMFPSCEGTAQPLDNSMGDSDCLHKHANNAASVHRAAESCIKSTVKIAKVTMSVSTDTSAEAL
# ASSAY_INFO: β-arrestin recruitment in hCB1-transfected HEK293 cells
# Format: cell-based
# CONDITION_DESCRIPTION: β-arrestin recruitment
MEASURED_ENDPOINT: Agonist efficacy (% activation) CB1
Write the number in % activation without appending the unit.

Known Agonist efficacy (% activation) CB1 results, listed for orientation:
COMPOUND	VALUE_MEASURED
CCn1c2ccccc2c2cc(C(O)c3ccc(C)c4ccccc34)ccc21 (centres unmarked)	7
CCn1c2ccccc2c2cc(C(=O)c3ccc(C)c4ccccc34)ccc21	5
CCn1c2ccccc2c2cc(C(=O)c3cccc4c3CCCN4)ccc21	−2
CCn1c2ccccc2c2cc(C(=O)c3cccc4ncccc34)ccc21	1

# next compound below
Please report the recorded Agonist efficacy (% activation) CB1 for CCCCCCC(C)(C)c1ccc([C@@H]2C[C@H](O)CC[C@H]2CCCO)c(O)c1 [positive control, CP55940, reference compound] . 1940
